Heads up, these compounds all have AC50 values measured for Vasopressin V1a receptor (Homo sapiens, UniProt P37288).

(Q) Please report the recorded AC50 for CCC(=O)O[C@H](CC(=O)O)C[N+](C)(C)C [LEVOCARNITINE PROPIONATE] .
(A) > 30 µM

(Q) Likewise for CCC(=O)c1ccc2c(c1)N(CC(C)N(C)C)c1ccccc1S2 (stereo not given) ?
(A) > 10 µM

(Q) # repeat for NCC1(CC(=O)O)CCCCC1
(A) > 30 µM

(Q) Try CC(C)CN(C[C@@H](O)[C@H](Cc1ccccc1)NC(=O)O[C@H]1CCOC1)S(=O)(=O)c1ccc(N)cc1 next.
(A) > 30 µM

(Q) Also CC(=O)OCC1=C(C(=O)O)N2C(=O)[C@@H](NC(=O)CSc3ccncc3)[C@H]2SC1 , if possible.
(A) > 10 µM

(Q) Next compound up: CN(C)CCC(O)(c1ccccc1)c1ccccc1Cl (stereo not given)
(A) > 10 µM

(Q) // next record C[C@@H](O)[C@H]1C(=O)N2C(C(=O)O)=C(SCCN=CN)C[C@H]12 [IMIPENEM ANHYDROUS]
(A) > 300 µM

(Q) Try the compound CN(C)CCc1c[nH]c2ccc(CS(=O)(=O)N3CCCC3)cc12
(A) > 30 µM

(Q) // query: N[C@@H](Cc1cc(I)c(Oc2cc(I)c(O)c(I)c2)c(I)c1)C(=O)O
(A) > 30 µM

(Q) What do we get for COC(=O)c1ccc2c(c1)NC(=O)/C2=C(\Nc1ccc(N(C)C(=O)CN2CCN(C)CC2)cc1)c1ccccc1 ?
(A) > 30 µM

(Q) Query CN1CCC(=C2c3ccccc3CC(=O)c3sccc32)CC1 next
(A) > 10 µM

(Q) Please give the result for C[C@]12CCC(=O)C=C1[C@@H]1C[C@@H]1[C@H]1[C@@H]3[C@@H]4C[C@@H]4[C@@]4(CCC(=O)O4)[C@@]3(C)CC[C@@H]12 too.
(A) > 30 µM

(Q) Proceed to Nc1nnc(-c2cccc(Cl)c2Cl)c(N)n1
(A) > 10 µM

(Q) And the next one, Cc1cccc(Nc2ccncc2S(=O)(=O)NC(=O)NC(C)C)c1 [TORSEMIDE] ?
(A) > 30 µM

(Q) Could you do the same for Cn1cnc2c(F)c(Nc3ccc(Br)cc3F)c(C(=O)NOCCO)cc21 , please?
(A) > 30 µM

(Q) Follow-up item: CNC1(C)C2CCC(C2)C1(C)C (stereo not given)
(A) > 10 µM

(Q) Check CC(C)(N)Cc1ccccc1 too.
(A) > 30 µM

(Q) What about this compound? CCC(NC(C)C)C(O)c1ccc(O)c(O)c1 (stereo not given)
(A) > 30 µM

(Q) Same again, this time with CN1C2CCCC1CC(NC(=O)c1nn(C)c3ccccc13)C2 (stereo not given)
(A) > 10 µM

(Q) Can you check CO[C@@H]1[C@@H](OC(N)=O)[C@@H](O)[C@H](Oc2ccc3c(O)c(NC(=O)c4ccc(O)c(CC=C(C)C)c4)c(=O)oc3c2C)OC1(C)C next?
(A) > 30 µM

(Q) Try this compound next: CC1=C(C(=O)O)N2C(=O)[C@@H](NC(=O)[C@H](N)C3=CCC=CC3)[C@H]2SC1
(A) > 30 µM

(Q) Next entry: CC[N+](CC)(CCNC(=O)C(=O)NCC[N+](CC)(CC)Cc1ccccc1Cl)Cc1ccccc1Cl
(A) > 30 µM

(Q) Lookup N=C(N)NC(=O)Cc1c(Cl)cccc1Cl
(A) > 30 µM

(Q) Do the same for C[C@@H](Cc1ccccc1)N(C)Cc1ccccc1 please
(A) > 10 µM

(Q) Next record, please: NS(=O)(=O)c1ccc(N2CCCCS2(=O)=O)cc1
(A) > 30 µM

(Q) Subsequent entry: CC1=C(/C=C/C(C)=C/C=C/C(C)=C/C(=O)Oc2c(C)c(C)c3c(c2C)CCC(C)(CCCC(C)CCCC(C)CCCC(C)C)O3)C(C)(C)CCC1 (stereo not given)
(A) > 30 µM

(Q) Then what about the compound CCCCC[C@H](O)CC[C@@H]1[C@H]2Cc3cccc(OCC(=O)O)c3C[C@H]2C[C@H]1O ?
(A) > 30 µM

(Q) Follow-up item: Oc1cc(O)c2c(c1)O[C@H](c1ccc(O)c(O)c1)[C@@H](O)C2
(A) > 30 µM

(Q) Record: O=C(c1ccccc1)c1ccc2n1CCC2C(=O)O (stereo not given)
(A) > 10 µM

(Q) Then what about the compound O=C(O)c1ccc2nc(-c3cc(Cl)cc(Cl)c3)oc2c1 ?
(A) > 30 µM

(Q) Another compound to check: CC(=O)SCC(Cc1ccccc1)C(=O)NCC(=O)OCc1ccccc1 (stereo not given)
(A) > 30 µM

(Q) Subsequent entry: CCC[C@@]1(CCc2ccccc2)CC(O)=C([C@H](CC)c2cccc(NS(=O)(=O)c3ccc(C(F)(F)F)cn3)c2)C(=O)O1
(A) > 30 µM

(Q) Query CC(C)(Oc1ccc(Cl)cc1)C(=O)OCCOC(=O)c1cccnc1 [ETOFIBRATE] next
(A) > 30 µM

(Q) Same read-out for O=C(O)c1nn(Cc2ccc(Cl)cc2Cl)c2ccccc12 ?
(A) > 30 µM

(Q) Input CC(=O)OCC1=C(C(=O)O)N2C(=O)[C@@H](NC(=O)Cc3cccs3)[C@H]2SC1
(A) > 30 µM

From: ChEMBL document CHEMBL5291721
